Every entry's value here was drawn from patent US12139488B2.

HCT116 pERK Ymin % for assorted compounds
system: pERK in HCT-116 cells (KRAS G13D); experiment: Phospho-ERK inhibition (AlphaLISA SureFire Ultra p-ERK 1/2), HCT116; assay type: cell-based, human; conditions: HCT116 cells; Ymin in brackets
Give the figure together with its unit, number first.

Look over these answered cases.
>>> reading("O=S(=O)(Nc1ccc(F)c(Nc2ncnc3ccc(-n4cnc5c(CN6CC(F)C6)cccc54)nc23)c1F)c1ccccc1Cl [Example 227]")
"−1.9%"
>>> reading("O=S(=O)(Nc1ccc(F)c(Nc2ncnc3ccc(-n4cc(CO)c5ccccc54)nc23)c1F)c1ccccc1Cl [Ex 88]")
"−6%"
>>> reading("Nc1cccc2c1nnn2-c1ccc2ncnc(Nc3c(F)ccc(NS(=O)(=O)c4cccc(Cl)c4Cl)c3F)c2n1 [Example 100]")
"−16%"
>>> reading("CC(C)NCc1cccc2c1ncn2-c1ccc2ncnc(Nc3c(F)ccc(NS(=O)(=O)c4ccccc4Cl)c3F)c2n1 [Ex 222]")
"−11%"
>>> reading("COc1ccc(S(=O)(=O)Nc2ccc(F)c(Nc3ncnc4ccc(-n5cnc6c(N)cccc65)nc34)c2F)c(C)c1 [Ex 76]")
"8%"
>>> reading("O=S(=O)(Nc1ccc(F)c(Nc2ncnc3ccc(-n4nc(-c5nnc(O)o5)c5ccccc54)nc23)c1F)c1cccc(Cl)c1Cl [Example 208]")
"−4%"

// below: HCT116 pERK Ymin % requested for another compound
## Task What value of HCT116 pERK Ymin % has been recorded for this entry: CC(=O)Nc1cccc2c1ncn2-c1ccc2ncnc(Nc3c(F)ccc(NS(=O)(=O)c4ccccc4Cl)c3F)c2n1 [Example 85]
## Result 2.9%
